Parameter: relative viability. Scope: all listed entries.
system: NCI-H2087; assay: relative viability (nuclei count vs DMSO), 5 days (fraction); higher = more cells survive; conditions: first compound 0.002 µM
outcome.measure: relative viability

compound | measurement
CCNC(=O)c1noc(-c2cc(C(C)C)c(O)cc2O)c1-c1ccc(CN2CCOCC2)cc1 [Luminespib] + CC(=O)c1c(C)c2cnc(Nc3ccc(N4CCNCC4)cn3)nc2n(C2CCCC2)c1=O [Palbociclib] (partner 0.5 µM) | 0.205
CCNC(=O)c1noc(-c2cc(C(C)C)c(O)cc2O)c1-c1ccc(CN2CCOCC2)cc1 [Luminespib] + N=C(N)NC(=N)NCCc1ccccc1 [Phenformin] (partner 250 µM) | 0.493
CCNC(=O)c1noc(-c2cc(C(C)C)c(O)cc2O)c1-c1ccc(CN2CCOCC2)cc1 [Luminespib] + Cc1nc(NC(=O)N2CCC[C@H]2C(N)=O)sc1-c1ccnc(C(C)(C)C(F)(F)F)c1 [Alpelisib] (partner 2 µM) | 1.2
CCNC(=O)c1noc(-c2cc(C(C)C)c(O)cc2O)c1-c1ccc(CN2CCOCC2)cc1 [Luminespib] + C[C@@H](Oc1cc(-c2cnn(C3CCNCC3)c2)cnc1N)c1c(Cl)ccc(F)c1Cl [Crizotinib] (partner 1 µM) | 0.934
CCNC(=O)c1noc(-c2cc(C(C)C)c(O)cc2O)c1-c1ccc(CN2CCOCC2)cc1 [Luminespib] + CC(=O)Nc1cccc(-n2c(=O)n(C3CC3)c(=O)c3c(Nc4ccc(I)cc4F)n(C)c(=O)c(C)c32)c1 [Trametinib] (partner 0.02 µM) | 0.197

From: the supplement of paper PMC10307832
